Reference source for all entries: paper PMC11181328

Target: DOR (Homo sapiens)
Construct: expressed in transfected cells; membrane homogenate
Assay: Competitive radioligand binding assay, DOR
Examples of compounds with documented Ki follow.
Provide only the numeric value, understood in nM.

Query string: I'm curious: which Ki was measured for `CN(C(=O)CCc1ccoc1)[C@H]1CC[C@@]2(O)[C@H]3Cc4cccc5c4[C@@]2(CCN3CC2CC2)[C@H]1O5` tested on DOR (Homo sapiens)?
Result string: 48.6

---

Target: KOR (Mus musculus, UniProt P33534)
Construct: expressed in transfected cells; membrane homogenate
Assay: Competitive radioligand binding assay, KOR
Settings: ratio of Ki values
I would appreciate it if you labelled entries Criterion met when selectivity ratio δ/κ is 50 or higher, otherwise Criterion not met.

Query string: Threshold query (selectivity ratio δ/κ >= 50) on CN(C(=O)/C=C/c1ccco1)[C@@H]1CC[C@@]2(O)[C@H]3Cc4ccc(O)c5c4[C@@]2(CCN3CC2CC2)[C@H]1O5.Cl [Compound 23]
Result string: Criterion not met

Query string: Could you please find out whether O=C(CCc1ccco1)N[C@@H]1CC[C@@]2(O)[C@H]3Cc4cccc5c4[C@@]2(CCN3CC2CC2)[C@H]1O5 [Compound 12] has selectivity ratio δ/κ that meets 50 or exceeds it?
Result string: Criterion not met

Query string: Answer whether selectivity ratio δ/κ of O=C(CCc1ccoc1)N[C@@H]1CC[C@@]2(O)[C@H]3Cc4cccc5c4[C@@]2(CCN3CC2CC2)[C@H]1O5 [Compound 4] is greater than or equal to 50.
Result string: Criterion met

Query string: Kindly determine if selectivity ratio δ/κ recorded for O=C(/C=C/c1ccco1)N[C@@H]1CC[C@@]2(O)[C@H]3Cc4cccc5c4[C@@]2(CCN3CC2CC2)[C@H]1O5 [Compound 20] is above or exactly 50.
Result string: Criterion met

Query string: Does the molecule O=C(CCc1ccoc1)N[C@H]1CC[C@@]2(O)[C@H]3Cc4cccc5c4[C@@]2(CCN3CC2CC2)[C@H]1O5 [Compound 2] have recorded selectivity ratio δ/κ that is 50 or more?
Result string: Criterion not met

Query string: Record CN(C(=O)CCc1ccco1)[C@H]1CC[C@@]2(O)[C@H]3Cc4cccc5c4[C@@]2(CCN3CC2CC2)[C@H]1O5 [Compound 9] ; criterion: selectivity ratio δ/κ no lower than 50. Met?
Result string: Criterion not met

Query string: Is selectivity ratio δ/κ at least 50? Consider O=C(CCc1ccco1)N[C@H]1CC[C@@]2(O)[C@H]3Cc4cccc5c4[C@@]2(CCN3CC2CC2)[C@H]1O5 [Compound 10]
Result string: Criterion not met

---

Target: MOR (Mus musculus, UniProt P42866)
Test: Competitive radioligand binding assay, MOR
Parameters: expressed in transfected cells; membrane homogenate
PARAMETER_MEASURED: Ki (pM)
// units = pM; emit number, no label

Query string: // lookup Ki for O=C(/C=C/c1ccco1)N[C@@H]1CC[C@@]2(O)[C@H]3Cc4ccc(O)c5c4[C@@]2(CCN3CC2CC2)[C@H]1O5 [Compound 24]
Result string: 300

Query string: What does the data say about its Ki? Entry: CN(C(=O)/C=C/c1ccco1)[C@@H]1CC[C@@]2(O)[C@H]3Cc4cccc5c4[C@@]2(CCN3CC2CC2)[C@H]1O5 [Compound 19]
Result string: 215000

Query string: Returns the measured Ki for the input compound. Input: CN(C(=O)CCc1ccco1)[C@@H]1CC[C@@]2(O)[C@H]3Cc4ccc(O)c5c4[C@@]2(CCN3CC2CC2)[C@H]1O5 [Compound 15]
Result string: 660

---

Assay: Drug distribution study (brain and plasma, LC-MS/MS)
Type: in vivo, mouse
Details: Swiss Webster, mouse, brain and plasma, sc; 0.1 mg/kg s.c., 60 min; read-out: B/P (brain-to-plasma concentration ratio)
PARAMETER_MEASURED: Kp at 1 h
Lab note: record just the number, no unit beside it.

Query string: Quick one: Kp at 1 h of `CN(C(=O)/C=C/c1ccco1)[C@H]1CC[C@@]2(O)[C@H]3Cc4ccc(O)c5c4[C@@]2(CCN3CC2CC2)[C@H]1O5.Cl` ?
Result string: 0.938

---

Target: MOR (Mus musculus, UniProt P42866)
Experiment: [35S]-GTPγS functional assay, MOR
Format: biochemical
Parameters: expressed in transfected cells; membrane homogenate
Details: mMOR-CHO membranes
Each record's class is read off its EC50 using these ranges: low group: < 7 nM; middle group: ≥ 7 nM and < 200 nM; high group: ≥ 200 nM

Below are worked cases with known answers.
Query string: For this molecule, which bin applies? `CN(C(=O)CCc1ccco1)[C@@H]1CC[C@@]2(O)[C@H]3Cc4ccc(O)c5c4[C@@]2(CCN3CC2CC2)[C@H]1O5`
Result string: low group

Query string: // return the class label for `O=C(CCc1ccco1)N[C@H]1CC[C@@]2(O)[C@H]3Cc4cccc5c4[C@@]2(CCN3CC2CC2)[C@H]1O5`
Result string: high group

Query string: Which band does `CN(C(=O)/C=C/c1ccco1)[C@@H]1CC[C@@]2(O)[C@H]3Cc4cccc5c4[C@@]2(CCN3CC2CC2)[C@H]1O5` fall in?
Result string: high group

Query string: Assign a category based on measured EC50 for `CN(C(=O)CCc1ccco1)[C@@H]1CC[C@@]2(O)[C@H]3Cc4cccc5c4[C@@]2(CCN3CC2CC2)[C@H]1O5` and give only the class name.
Result string: high group

Query string: Which of the defined bands does the recorded EC50 of `CN(C(=O)CCc1ccoc1)[C@H]1CC[C@@]2(O)[C@H]3Cc4cccc5c4[C@@]2(CCN3CC2CC2)[C@H]1O5` sit within?
Result string: middle group

New cases:
Query string: Could you place `O=C(CCc1ccoc1)N[C@@H]1CC[C@@]2(O)[C@H]3Cc4cccc5c4[C@@]2(CCN3CC2CC2)[C@H]1O5` in its proper category? Many thanks.
Result string: middle group

Query string: Which category does the recorded EC50 put `O=C(/C=C/c1ccco1)N[C@@H]1CC[C@@]2(O)[C@H]3Cc4ccc(O)c5c4[C@@]2(CCN3CC2CC2)[C@H]1O5` in?
Result string: low group

Query string: Pick a category. Item: `O=C(/C=C/c1ccco1)N[C@@H]1CC[C@@]2(O)[C@H]3Cc4cccc5c4[C@@]2(CCN3CC2CC2)[C@H]1O5`
Result string: high group

Query string: State the band of `CN(C(=O)/C=C/c1ccco1)[C@H]1CC[C@@]2(O)[C@H]3Cc4cccc5c4[C@@]2(CCN3CC2CC2)[C@H]1O5`
Result string: middle group

Query string: Band for `CN(C(=O)CCc1ccoc1)[C@@H]1CC[C@@]2(O)[C@H]3Cc4cccc5c4[C@@]2(CCN3CC2CC2)[C@H]1O5` ?
Result string: high group

Query string: Would you mind sorting `CN(C(=O)/C=C/c1ccco1)[C@H]1CC[C@@]2(O)[C@H]3Cc4ccc(O)c5c4[C@@]2(CCN3CC2CC2)[C@H]1O5.Cl` into the appropriate category?
Result string: low group

Query string: Which category fits this record: `CN(C(=O)CCc1ccoc1)[C@H]1CC[C@@]2(O)[C@H]3Cc4ccc(O)c5c4[C@@]2(CCN3CC2CC2)[C@H]1O5`
Result string: low group

Query string: Consider `CN(C(=O)/C=C/c1ccco1)[C@@H]1CC[C@@]2(O)[C@H]3Cc4ccc(O)c5c4[C@@]2(CCN3CC2CC2)[C@H]1O5.Cl` . To which EC50 class does it belong?
Result string: low group

---

Target: hERG (Homo sapiens)
Assay: Automated patch-clamp hERG inhibition assay in CHO-hERG cells
PARAMETER_MEASURED: IC50 (nM)
Return type: number; implicit unit nM.

Query string: I have this compound here, `CN(C(=O)/C=C/c1ccco1)[C@@H]1CC[C@@]2(O)[C@H]3Cc4ccc(O)c5c4[C@@]2(CCN3CC2CC2)[C@H]1O5.Cl` , and I need its recorded IC50.
Result string: 1090

---

Assay: in vitro
Settings: human, s9
Below, each entry is listed with its recorded microsomal CLint.

Query string: What measured microsomal CLint goes with CN(C(=O)/C=C/c1ccco1)[C@H]1CC[C@@]2(O)[C@H]3Cc4ccc(O)c5c4[C@@]2(CCN3CC2CC2)[C@H]1O5.Cl [Compound 21] ?
Result string: < 5.8 µL/min/mg

Now look at this entry.
Query string: So what's the measured microsomal CLint for this one? CN(C(=O)/C=C/c1ccco1)[C@@H]1CC[C@@]2(O)[C@H]3Cc4ccc(O)c5c4[C@@]2(CCN3CC2CC2)[C@H]1O5.Cl [Compound 23]
Result string: < 5.8 µL/min/mg

---

The entries below are paired with their reported pEC50.
Target: DOR (Homo sapiens)
Construct: membrane homogenate
Assay: [35S]-GTPγS functional assay, DOR
Conditions: hDOR-CHO membranes
Please express pEC50 as -log10 of the molar concentration.

Query string: Requested field: pEC50. Item: `CN(C(=O)CCc1ccco1)[C@@H]1CC[C@@]2(O)[C@H]3Cc4cccc5c4[C@@]2(CCN3CC2CC2)[C@H]1O5`
Result string: 5.96

Next:
Query string: Given the entry `Cl.O=C(CCc1ccco1)N[C@H]1CC[C@@]2(O)[C@H]3Cc4ccc(O)c5c4[C@@]2(CCN3CC2CC2)[C@H]1O5` , report its measured pEC50.
Result string: 8.45

Query string: // lookup pEC50 for `CN(C(=O)CCc1ccco1)[C@H]1CC[C@@]2(O)[C@H]3Cc4ccc(O)c5c4[C@@]2(CCN3CC2CC2)[C@H]1O5`
Result string: 9.18
